The entries below come with measured MIC values attached.
Tested on: Aspergillus fumigatus
Assay: Antifungal activity against Aspergillus fumigatus 231 after 48 hrs
Assay type: functional
metric: MIC (µM)

[
  {
    "compound": "C[C@]12CC[C@@H]3c4ccc(OCCCCCCCBr)cc4CC[C@H]3[C@@H]1CCC2=O",
    "metric": "MIC",
    "signQualifier": ">",
    "number": 125
  },
  {
    "compound": "C[C@]12CC[C@@H]3c4ccc(OCCCCCCC[n+]5ccccc5)cc4CC[C@H]3[C@@H]1CCC2=O.[Br-]",
    "metric": "MIC",
    "signQualifier": "=",
    "number": 62.5
  },
  {
    "compound": "OC(Cn1cncn1)(Cn1cncn1)c1ccc(F)cc1F [FLUCONAZOLE]",
    "metric": "MIC",
    "signQualifier": ">",
    "number": 250
  },
  {
    "compound": "C[C@]12CC[C@@H]3c4ccc(OCCCCCCCSc5nnnn5-c5ccccc5)cc4CC[C@H]3[C@@H]1CCC2=O",
    "metric": "MIC",
    "signQualifier": ">",
    "number": 250
  },
  {
    "compound": "C[C@]12CC[C@@H]3c4ccc(OCCCCCCCSc5nnnn5-c5ccc(Cl)c(Cl)c5)cc4CC[C@H]3[C@@H]1CCC2=O",
    "metric": "MIC",
    "signQualifier": ">",
    "number": 250
  },
  {
    "compound": "C[C@]12CC[C@@H]3c4ccc(OCCCCCCCSc5nnnn5-c5ccc(Cl)cc5)cc4CC[C@H]3[C@@H]1CCC2=O",
    "metric": "MIC",
    "signQualifier": ">",
    "number": 250
  },
  {
    "compound": "C[C@@H]1[C@H](O)[C@@H](C)/C=C/C=C/C=C/C=C/C=C/C=C/C=C/[C@H](O[C@@H]2O[C@H](C)[C@@H](O)[C@H](N)[C@@H]2O)C[C@@H]2O[C@](O)(C[C@@H](O)C[C@@H](O)[C@H](O)CC[C@@H](O)C[C@@H](O)CC(=O)O[C@H]1C)C[C@H](O)[C@H]2C(=O)O [AMPHOTERICIN B]",
    "metric": "MIC",
    "signQualifier": "=",
    "number": 0.27
  },
  {
    "compound": "Clc1ccc(-n2nnnc2SCc2ccccc2)cc1",
    "metric": "MIC",
    "signQualifier": "=",
    "number": 62.5
  },
  {
    "compound": "C[C@]12CC[C@@H]3c4ccc(OCCCCCCC[n+]5ccc(SCc6ccc(Cl)cc6)cc5)cc4CC[C@H]3[C@@H]1CCC2=O.[Br-]",
    "metric": "MIC",
    "signQualifier": "=",
    "number": 31
  },
  {
    "compound": "C[C@]12CC[C@@H]3c4ccc(OCCCCCCC[n+]5ccc(SCc6ccccc6)cc5)cc4CC[C@H]3[C@@H]1CCC2=O.[Br-]",
    "metric": "MIC",
    "signQualifier": "=",
    "number": 31
  },
  {
    "compound": "Clc1ccc(-n2nnnc2SCc2ccccc2)cc1Cl",
    "metric": "MIC",
    "signQualifier": ">",
    "number": 250
  },
  {
    "compound": "Cc1ccc(-n2nnnc2SCCCCCCCOc2ccc3c(c2)CC[C@@H]2[C@@H]3CC[C@]3(C)C(=O)CC[C@@H]23)cc1",
    "metric": "MIC",
    "signQualifier": ">",
    "number": 250
  },
  {
    "compound": "Cc1ccc(-n2nnnc2SCc2ccccc2)cc1",
    "metric": "MIC",
    "signQualifier": "=",
    "number": 250
  },
  {
    "compound": "c1ccc(CSc2nnnn2-c2ccccc2)cc1",
    "metric": "MIC",
    "signQualifier": ">",
    "number": 250
  }
]
